Provide the reported log10 of IC50 of each item.
target: recombinant human Mcl-1 (residues 171-327) / Bim interaction (Homo sapiens (Human), UniProt Q07820); assay: biochemical; type: binding; details: TR-FRET, Mcl-1(171-327) / biotin-Bim (51-76); read-out: Mcl-1 HTRF IC50
Sequence (Q07820 171-327): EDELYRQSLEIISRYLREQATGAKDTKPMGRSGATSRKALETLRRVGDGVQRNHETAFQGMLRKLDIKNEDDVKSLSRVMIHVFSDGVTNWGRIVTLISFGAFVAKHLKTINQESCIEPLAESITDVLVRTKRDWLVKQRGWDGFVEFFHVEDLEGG
Plainly stated, the numbers are log10 of IC50 given in nM.

[
  {
    "compound": "CO[C@]1(c2nccs2)/C=C/C[C@H](C)[C@@H](C)S(=O)(=O)NC(=O)c2ccc3c(c2)N(C[C@@H]2CC[C@H]21)C[C@@]1(CCCc2cc(Cl)ccc21)CO3 (single isomer, unassigned) [Example 100522]",
    "log10 of IC50": -0.84
  },
  {
    "compound": "C[C@@H]1[C@@H](C)C/C=C/[C@](O)(c2cccnc2)[C@@H]2CC[C@H]2CN2C[C@@]3(CCCc4cc(Cl)ccc43)COc3ccc(cc32)C(=O)NS1(=O)=O (single isomer, unassigned) [Example 100183]",
    "log10 of IC50": 0.13
  },
  {
    "compound": "COCCO[C@@]1(C)/C=C/C[C@H](C)[C@@H](C)S(=O)(=O)NC(=O)c2ccc3c(c2)N(C[C@@H]2CC[C@H]21)C[C@@]1(CCCc2cc(Cl)ccc21)CO3 [Example 100466]",
    "log10 of IC50": -1.37
  },
  {
    "compound": "C[C@@H]1[C@@H](C)C/C=C/[C@](O)(C(C)(C)C#N)[C@@H]2CC[C@H]2CN2C[C@@]3(CCCc4cc(Cl)ccc43)COc3ccc(cc32)C(=O)NS1(=O)=O [Example 100060]",
    "log10 of IC50": 0.60
  }
]

# map each compound to its log10 of IC50
1. CNC(=O)C[C@@]1(O)CCC[C@H](C)[C@@H](C)S(=O)(=O)NC(=O)c2ccc3c(c2)N(C[C@@H]2CC[C@H]21)C[C@@]1(CCCc2cc(Cl)ccc21)CO3 (single isomer, unassigned) [Example 100103]
2. C[C@@H]1[C@@H](C)C/C=C/[C@@]2(CCCO2)[C@@H]2CC[C@H]2CN2C[C@@]3(CCCc4cc(Cl)ccc43)COc3ccc(cc32)C(=O)NS1(=O)=O (single isomer, unassigned) [Example 100159]
3. C[C@@H]1[C@@H](C)CCC[C@](C)(CN2CCOCC2)[C@@H]2CC[C@H]2CN2C[C@@]3(CCCc4cc(Cl)ccc43)COc3ccc(cc32)C(=O)NS1(=O)=O [Example 100302]
4. CO[C@@]1(c2nccs2)/C=C/C[C@H](C)[C@@H](C)S(=O)(=O)NC(=O)c2ccc3c(c2)N(C[C@@H]2CC[C@H]21)C[C@@]1(CCCc2cc(Cl)ccc21)CO3 (single isomer, unassigned) [Example 100497]
5. CO[C@]1(c2ncccn2)/C=C/C[C@H](C)[C@@H](C)S(=O)(=O)NC(=O)c2ccc3c(c2)N(C[C@@H]2CC[C@H]21)C[C@@]1(CCCc2cc(Cl)ccc21)CO3 [Example 100278]
6. CC[C@]1(CO)/C=C/C[C@H](C)[C@@H](C)S(=O)(=O)NC(=O)c2ccc3c(c2)N(C[C@@H]2CC[C@H]21)C[C@@]1(CCCc2cc(Cl)ccc21)CO3 (single isomer, unassigned) [Example 100605]

Resp:
1: -0.49; 2: -0.25; 3: 0.58; 4: -1.19; 5: -0.34; 6: 0.51

# map each compound to its log10 of IC50
1. CO[C@@]1(Cc2nc(CN(C)C)c(C)o2)/C=C/C[C@H](C)[C@@H](C)S(=O)(=O)NC(=O)c2ccc3c(c2)N(C[C@@H]2CC[C@H]21)C[C@@]1(CCCc2cc(Cl)ccc21)CO3 [Example 100586]
2. CO[C@]1(c2cncc(CN3CCOCC3)c2)/C=C/C[C@H](C)[C@@H](C)S(=O)(=O)NC(=O)c2ccc3c(c2)N(C[C@@H]2CC[C@H]21)C[C@@]1(CCCc2cc(Cl)ccc21)CO3 (stereo in doubt) [Example 100521]
3. C[C@@H]1[C@@H](C)C/C=C/[C@@](O)(C=O)[C@@H]2CC[C@H]2CN2C[C@@]3(CCCc4cc(Cl)ccc43)COc3ccc(cc32)C(=O)NS1(=O)=O [Example 100291]
4. C#C[C@@]1(OC)/C=C/C[C@H](C)[C@@H](C)S(=O)(=O)NC(=O)c2ccc3c(c2)N(C[C@@H]2CC[C@H]21)C[C@@]1(CCCc2cc(Cl)ccc21)CO3 [Example 100503]

Resp:
[-1.13, -0.71, -0.86, -0.31]
